The reported measurements were obtained from patent US8883745B2.

Tested on: IFN-γ
Experiment: IFN-γ levels in sera upon i.v. glycolipid administration to C57BL/6 mice (ELISA)
Type: in vivo
Set-up: unit not given here
Settings: C57BL/6, serum, hour 72

COMPOUND: CCCCCCCCCCCCCCCCC/C=C/CCCCCCCCC(=O)N[C@@H](CC[C@H]1O[C@H](CO)[C@H](O)[C@H](O)[C@H]1O)[C@H](O)[C@H](O)CCCCCCCCCCCCCC
IFN-γ levels, test 1: 75
--
COMPOUND: CCCCCCCCCCCCCC[C@@H](O)[C@@H](O)[C@H](CC[C@H]1O[C@H](CO)[C@H](O)[C@H](O)[C@H]1O)NC(=O)CCCCCCCCCCCCCCCCCCCOCCCCCC
IFN-γ levels, test 1: 245
--
COMPOUND: CCCCCCCCCCCCCCCCCCCCCCCCCCCCC(=O)N[C@@H](/C=C/[C@H]1O[C@H](CO)[C@H](O)[C@H](O)[C@H]1O)[C@H](O)[C@H](O)CCCCCCCCCCCCCC
IFN-γ levels, test 1: 87
--
COMPOUND: CCCCCCCCCCCCCCCCCCCCCCCCCC(=O)N[C@@H](CO[C@H]1O[C@H](CO)[C@H](O)[C@H](O)[C@H]1O)[C@H](O)[C@H](O)CCCCCCCCCCCCCC [KRN, reference compound]
IFN-γ levels, test 1: 332
